This collection of values is drawn from paper PMC12527173.

- ASSAY SYSTEM: human recombinant Glo-I enzyme (rhGlo-I) (Homo sapiens)
- Construct: N-terminal Met and 6-His tag (N); purchased R&D Systems; host or cells: E. coli
- Sequence (Q04760 2-184 limits assumed): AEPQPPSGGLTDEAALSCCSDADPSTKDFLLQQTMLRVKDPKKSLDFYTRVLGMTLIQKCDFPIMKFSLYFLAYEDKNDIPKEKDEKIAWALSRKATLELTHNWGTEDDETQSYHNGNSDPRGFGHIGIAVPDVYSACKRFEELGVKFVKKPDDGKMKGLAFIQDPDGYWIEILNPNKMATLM
- PROTOCOL DETAILS: Glyoxalase-I (Glo-I) enzyme inhibition assay
- Type: biochemical
- EXPERIMENTAL SETUP: human recombinant Glo-I; triplicates; read-out: IC50 µM ± SD
READOUT NAME: IC50
Answer by giving the amount and then stating its unit.

C[C@]12CC[C@@H]3c4ccc(O)c(O)c4CC[C@H]3[C@@H]1CC[C@@H]2O [4-hydroxy-estradiol] = 0.22 µM
Cc1ccc(C(=O)c2cc(O)c(O)c([N+](=O)[O-])c2)cc1 [Tolcapone, reference compound] = 9.6 µM

Note: attention shifts to another entry.
# input Please provide the recorded IC50 for O=C1c2ccc(O)c(O)c2C(=O)c2c(O)ccc(O)c21 [Quinalizarin] , tested on human recombinant Glo-I enzyme (rhGlo-I) (Homo sapiens).
# output 33.4 µM

###

Quick reference for Maximum (descriptive statistics of enzyme inhibition) among some compounds
- ASSAY SYSTEM: human recombinant Glo-I enzyme (rhGlo-I) (Homo sapiens)
- Construct: N-terminal Met and 6-His tag (N); purchased R&D Systems; host or cells: E. coli
- Sequence (Q04760 2-184 limits assumed): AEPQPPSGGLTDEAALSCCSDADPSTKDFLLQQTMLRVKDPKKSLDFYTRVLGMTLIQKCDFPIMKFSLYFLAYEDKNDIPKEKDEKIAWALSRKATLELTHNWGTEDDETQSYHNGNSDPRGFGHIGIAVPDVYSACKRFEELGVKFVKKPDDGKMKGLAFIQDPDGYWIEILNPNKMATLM
- PROTOCOL DETAILS: Glyoxalase-I (Glo-I) enzyme inhibition assay
- Type: biochemical
- EXPERIMENTAL SETUP: highest mean inhibition over the tested concentrations; in % (unit assumed)
Answer with a bare number; do not write a unit.

CC(C)=CC[C@@H](O)C1=CC(=O)c2c(O)ccc(O)c2C1=O = 100.7

# input Would you kindly share the measured Maximum (descriptive statistics of enzyme inhibition) for O=C1c2ccc(O)c(O)c2C(=O)c2c(O)ccc(O)c21 ?
# output 56.90

# input Given the entry C[C@]12CC[C@@H]3c4ccc(O)c(O)c4CC[C@H]3[C@@H]1CC[C@@H]2O [4-hydroxy-estradiol] , report its measured Maximum (descriptive statistics of enzyme inhibition).
# output 102.5

# input Give its Maximum (descriptive statistics of enzyme inhibition) value. Item: Cc1ccc(C(=O)c2cc(O)c(O)c([N+](=O)[O-])c2)cc1 [Tolcapone, reference compound]
# output 98.66

# input Which Maximum (descriptive statistics of enzyme inhibition) value is on record for O=C(/C=C/c1ccc(O)c(O)c1)O[C@H]1[C@H](O)[C@@H](O)[C@H](OCCc2ccc(O)c(O)c2)O[C@@H]1CO [Calceolarioside A] ?
# output 55.00

# input Entry under review: O=c1cc(O)cc(/C=C/c2ccc(O)c(O)c2)o1 . Reported Maximum (descriptive statistics of enzyme inhibition)?
# output 50.76

# input Requested field: Maximum (descriptive statistics of enzyme inhibition). Item: CC(/C=C/C(=O)NO)=C\[C@@H](C)C(=O)c1ccc(N(C)C)cc1 [Trichostatin A, reference compound]
# output 47.33

###

- ASSAY SYSTEM: human recombinant Glo-I enzyme (rhGlo-I) (Homo sapiens, UniProt Q04760)
- Construct: N-terminal Met and 6-His tag (N); purchased R&D Systems; host or cells: E. coli
- PROTOCOL DETAILS: Glyoxalase-I (Glo-I) enzyme inhibition assay
- Format: biochemical
- EXPERIMENTAL SETUP: 3.125 µM; read-out: Trial one (%inhibtion)
inhibition at 3.125 µM values for the molecules below.
Quick note: give the figure in %, leave out the unit.

C[C@]12CC[C@@H]3c4ccc(O)c(O)c4CC[C@H]3[C@@H]1CC[C@@H]2O [4-hydroxy-estradiol] = 93

Then this molecule:
# input // inhibition at 3.125 µM lookup, key: Cc1ccc(C(=O)c2cc(O)c(O)c([N+](=O)[O-])c2)cc1 [Tolcapone, reference compound]
# output 12.3

###

- ASSAY SYSTEM: human recombinant Glo-I enzyme (rhGlo-I) (Homo sapiens, UniProt Q04760)
- Construct: N-terminal Met and 6-His tag (N); purchased R&D Systems; host or cells: E. coli
- PROTOCOL DETAILS: Glyoxalase-I (Glo-I) enzyme inhibition assay
- Format: biochemical
- EXPERIMENTAL SETUP: 50 µM; read-out: Trial one (%inhibtion)
Entry flag: 1.0 if inhibition at 50 µM reaches 60%; 0.0 if it does not.

Example entries and their recorded answers appear below.
CC(/C=C/C(=O)NO)=C\[C@@H](C)C(=O)c1ccc(N(C)C)cc1 [Trichostatin A, reference compound] = 0.0
C[C@]12CC[C@@H]3c4ccc(O)c(O)c4CC[C@H]3[C@@H]1CC[C@@H]2O [4-hydroxy-estradiol] = 1.0

# input Reported inhibition at 50 µM reaches at least 60% for O=C(/C=C/c1ccc(O)c(O)c1)O[C@H]1[C@H](O)[C@@H](O)[C@H](OCCc2ccc(O)c(O)c2)O[C@@H]1CO [Calceolarioside A] ?
# output 0.0

# input Dear colleague, could you confirm whether O=c1cc(O)cc(/C=C/c2ccc(O)c(O)c2)o1 has inhibition at 50 µM at or above 60%?
# output 0.0

# input Evaluate O=C1c2ccc(O)c(O)c2C(=O)c2c(O)ccc(O)c21 : inhibition at 50 µM at minimum 60%?
# output 0.0

# input Determine whether this compound has inhibition at 50 µM no lower than 60%: Cc1ccc(C(=O)c2cc(O)c(O)c([N+](=O)[O-])c2)cc1 [Tolcapone, reference compound]
# output 1.0

###

Listed below: inhibition at 12.5 µM values for each entry.
- ASSAY SYSTEM: human recombinant Glo-I enzyme (rhGlo-I) (Homo sapiens, UniProt Q04760)
- Construct: N-terminal Met and 6-His tag (N); purchased R&D Systems; host or cells: E. coli
- PROTOCOL DETAILS: Glyoxalase-I (Glo-I) enzyme inhibition assay
- Format: biochemical
- EXPERIMENTAL SETUP: 12.5 µM; read-out: Trial three (%inhibtion)
Give the quantity in %, number only.

Before answering, review these 5 worked examples.
O=c1cc(O)cc(/C=C/c2ccc(O)c(O)c2)o1 [Hispidin] = 34.3
CC(/C=C/C(=O)NO)=C\[C@@H](C)C(=O)c1ccc(N(C)C)cc1 [Trichostatin A, reference compound] = 24.7
C[C@]12CC[C@@H]3c4ccc(O)c(O)c4CC[C@H]3[C@@H]1CC[C@@H]2O [4-hydroxy-estradiol] = 99.3
O=C(/C=C/c1ccc(O)c(O)c1)O[C@H]1[C@H](O)[C@@H](O)[C@H](OCCc2ccc(O)c(O)c2)O[C@@H]1CO [Calceolarioside A] = 20.9
O=C1c2ccc(O)c(O)c2C(=O)c2c(O)ccc(O)c21 [Quinalizarin] = 41.8

# input // query inhibition at 12.5 µM value for entry Cc1ccc(C(=O)c2cc(O)c(O)c([N+](=O)[O-])c2)cc1 [Tolcapone, reference compound]
# output 56.5

###

Minimum (descriptive statistics of enzyme inhibition) overview
- ASSAY SYSTEM: human recombinant Glo-I enzyme (rhGlo-I) (Homo sapiens)
- Construct: N-terminal Met and 6-His tag (N); purchased R&D Systems; host or cells: E. coli
- PROTOCOL DETAILS: Glyoxalase-I (Glo-I) enzyme inhibition assay
- Assay type: biochemical
- EXPERIMENTAL SETUP: lowest mean inhibition over the tested concentrations; in % (unit assumed)
- Method: Solvents and chemicals were procured from Sigma-Aldrich Co. and Acros (ThermoFisher Scientific, New Jersey, USA). […] The enzyme was obtained from R&D Systems® Corporation in the USA. Synthetic compounds were tested for their inhibitory effects on the enzyme using a 10 mM DMSO stock concentration in triplicates. The manufacturer’s protocol from R & D Systems, Inc. in Minneapolis, MN, USA was followed for the in vitro experiments. […]

Consider the following illustrative entries.
O=C(/C=C/c1ccc(O)c(O)c1)O[C@H]1[C@H](O)[C@@H](O)[C@H](OCCc2ccc(O)c(O)c2)O[C@@H]1CO [Calceolarioside A] = 10.00
C[C@]12CC[C@@H]3c4ccc(O)c(O)c4CC[C@H]3[C@@H]1CC[C@@H]2O [4-hydroxy-estradiol] = 20.07
CC(C)=CC[C@@H](O)C1=CC(=O)c2c(O)ccc(O)c2C1=O = 23.58
O=C1c2ccc(O)c(O)c2C(=O)c2c(O)ccc(O)c21 = 23.66
Cc1ccc(C(=O)c2cc(O)c(O)c([N+](=O)[O-])c2)cc1 [Tolcapone, reference compound] = 17.38
CC(/C=C/C(=O)NO)=C\[C@@H](C)C(=O)c1ccc(N(C)C)cc1 [Trichostatin A, reference compound] = 7.808

# input for lookup
# input # value lookup — system human recombinant Glo-I enzyme (rhGlo-I) (Homo sapiens), readout Minimum (descriptive statistics of enzyme inhibition), item O=c1cc(O)cc(/C=C/c2ccc(O)c(O)c2)o1
# output 11.95
